Just for reference, patent US20220064314A1 is where these values come from.

system under test: T1, 4-1BB (CD137), antigen of the Octet kinetics (UniProt Q07011 24-186, limits assumed)
T1 construct: also called TNFRSF9
method: Octet (BLI), mono-valent binding kinetics
Below: a set of entries, each annotated with reported Response.
measured property: Response

- cAB 137QL.G28.21.G2 (antibody, human IgG2, V domains shown, Chimeric antibody; also called Chimeric G28.21; cAb G28.21.G2) VH: EVQLQQSGAELVRPGASVKLSCTASGFNIKDYYIHWVNQRPEQGLEWIGRIDPEDGDIAYAPKFQDKATLTVDTSSNTAYLHIIGLTSEDTAVYYCTTGNYYAMDFWGQGTSVTVSS VL: QIVLTQSPAIMSASLGERVTMTCTASSSVSSSYLHWYQQKPGSSPKLWIYSTSNLASGVPARFSGSGSGTSYSLTISSMEAEDAATYYCHQYHRSPPTFGSGTKLEIK: 0.204
- huG28.21.G2.4.4 (antibody, human IgG2, kappa, V domains shown, also called huG28.21.4.4) VH: EVQLQQSGAEVKKPGATVKLSCKASGFNIKDYYIHWVNQRPGQGLEWIGRIDPEDGDIAYAPKFQDRATLTVDTSTNTAYLELSSLRSEDTAVYYCTTGNYYAMDFWGQGTTVTVSS VL: QIVLTQSPATLSASPGERVTLSCTASSSVSSSYLHWYQQKPGSSPKLWIYSTSNLASGVPARFSGSGPGTSYTLTISSMEPEDAATYYCHQYHRSPPTFGQGTKLEIKR: 0.175
- huG28.21.G2.1.4 (antibody, human IgG2, kappa, V domains shown, also called huG28.21.1.4) VH: EVQLVQSGAEVKKPGATVKISCKASGFNIKDYYIHWVNQAPGKGLEWIGRIDPEDGDIAYAPKFQDRVTLTVDTSTDTAYLELSSLRSEDTAVYYCTTGNYYAMDFWGQGTTVTVSS VL: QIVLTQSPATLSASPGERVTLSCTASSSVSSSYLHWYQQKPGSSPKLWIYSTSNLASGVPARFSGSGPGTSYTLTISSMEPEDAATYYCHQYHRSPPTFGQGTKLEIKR: 0.181
- cAb 137QL.F1.1.G2 (antibody, human IgG2, V domains shown, Chimeric antibody; also called Chimeric F1.1; cAb F1.1.G2) VH: QVQLQQSGAELARPGASVKMSCKASGYTFTFYTMHWLKQRPGQGLEWIGYINPSSGYTNYNQKFTDKATLTADKSSSTAYMQLSSLTSEDSAVYYCARSDGSSSKWYFDVWGTGTTVTVSS VL: QIVLSQSPTILSASPGEKVTMTCRASSSVSYIHWYQQKPGSSPKAWISATSNLASGVPARFSGSGSGTSYSLTISRVEAEDAATYYCQQWSSNPFTFGSGTKLEIK: 0.138
- huF1.1.G2.4.4 (antibody, human IgG2, kappa, V domains shown, also called huF1.1.4.4) VH: QVQLVQSGAEVKKPGASVKMSCKASGYTFTFYTMHWLKQAPGQGLEWIGYINPSSGYTNYNQKFTDRATLTADKSTSTAYMELSSLRSEDTAVYYCARSDGSSSKWYFDVWGQGTTVTVSS VL: EIVLTQSPDFQSATPKEKVTITCRASSSVSYIHWYQQKPGSSPKAWISATSNLASGVPSRFSGSGSGTSYTLTINRVEAEDAATYYCQQWSSNPFTFGQGTKLEIKR: 0.137
- huF1.1.G2.2.4 (antibody, human IgG2, kappa, V domains shown, also called huF1.1.2.4) VH: QVQLVQSGAEVKKPGASVKVSCKASGYTFTFYTMHWLRQAPGQGLEWIGYINPSSGYTNYNQKFTDRATLTADTSTSTAYMELSSLRSEDTAVYYCARSDGSSSKWYFDVWGQGTTVTVSS VL: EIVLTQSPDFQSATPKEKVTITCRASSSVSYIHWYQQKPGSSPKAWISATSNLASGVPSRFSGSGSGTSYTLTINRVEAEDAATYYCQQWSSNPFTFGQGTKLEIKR: 0.12
